molecular target: Aβ42 (Homo sapiens, UniProt P05067); test: Th-T (thioflavin-T) assay of Aβ42 aggregation; type: biochemical; settings: column suffix _20; reading M94
Sequence (P05067 672-713): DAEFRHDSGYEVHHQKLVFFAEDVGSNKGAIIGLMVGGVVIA
Values of Fig. 7a Th-T reading, mean of three wells greater than or equal to 1 map to Met; values below map to Not met.

>>> assigned_label("C=C1CC[C@@H]2[C@](C)(CC[C@H]3O[C@H](C=C(C)C)C[C@@]23C)[C@@H]1Cc1c(OC)oc(CO)c(C)c1=O [Compound 20]")
"Met"
>>> assigned_label("C=C1CCC2C(C)(CCC=C(C)C)C(O)CCC2(C)C1Cc1c(OC)oc(CO)c(C(=O)OC)c1=O (centres unmarked) [Compound 13]")
"Met"
>>> assigned_label("C=C1CCC2C(C)(CCC=C(C)C)C(O)CCC2(C)C1Cc1c(OC)oc(C)c(C(=O)OC)c1=O (centres unmarked) [Compound 14]")
"Met"
>>> assigned_label("C=C1CC[C@@H]2[C@](C)(CC[C@H]3O[C@H](C=C(C)C)C[C@@]23C)[C@@H]1Cc1c(OC)oc(CO)c(C(=O)OC)c1=O [Compound 21]")
"Not met"
>>> assigned_label("C=C1CCC2C(C)(CCC=C(C)C)C(O)CCC2(C)C1Cc1c(OC)oc(CO)c(C)c1=O (centres unmarked) [Compound 12]")
"Met"

* * *

biological target: Aβ42 (Homo sapiens, UniProt P05067); experiment: Th-T (thioflavin-T) assay of Aβ42 aggregation; assay type: biochemical; settings: time-course reading M99; Supplementary Fig. 47 source data
Recorded Th-T fluorescence, mean of three wells values for a group of compounds are listed next.
metric_name: Th-T fluorescence, mean of three wells

>>> experimental_result("C=C1CC[C@@H]2[C@](C)(CC[C@H]3O[C@H](C=C(C)C)C[C@@]23C)[C@@H]1Cc1c(OC)oc(CO)c(C(=O)OC)c1=O")
1.027
>>> experimental_result("C=C1CCC2C(C)(CCC=C(C)C)C(O)CCC2(C)C1Cc1c(OC)oc(C)c(C)c1=O (stereo not shown) [Compound 11]")
3.504
>>> experimental_result("C=C1CCC2C(C)(CC(=O)C=C(C)C)C(O)CCC2(C)C1Cc1c(OC)oc(C)c(C)c1=O (stereo not shown)")
3.679
>>> experimental_result("C=C1CCC2C(C)(CC(=O)C=C(C)C)C(O)CCC2(C)C1Cc1c(OC)oc(CO)c(C)c1=O (stereo not shown)")
3.625
>>> experimental_result("CC(C)=CCC/C(C)=C/CC/C(C)=C/CC/C(C)=C/Cc1c(O)c(C)c(C)oc1=O")
2.942
>>> experimental_result("C=C1CC[C@H]2[C@]3(C)C[C@H](C=C(C)C)O[C@H]3CC[C@]2(C)[C@@H]1Cc1c(OC)oc(CO)c(C)c1=O")
3.924
>>> experimental_result("C=C1CC[C@@H]2[C@](C)(CC[C@H]3O[C@H](C=C(C)C)C[C@@]23C)[C@@H]1Cc1c(O)c(C)c(C)oc1=O")
3.05
>>> experimental_result("C=C1CCC2C(C)(CCC=C(C)C)C(O)CCC2(C)C1Cc1c(OC)oc(CO)c(C(=O)OC)c1=O (stereo not shown)")
1.04
>>> experimental_result("C=C1CCC2C3(C)CC(C=C(C)C)OC3CCC2(C)C1Cc1c(OC)oc(C)c(C)c1=O (stereo not shown)")
3.901
>>> experimental_result("C=C1CCC2C(C)(CCC=C(C)C)C(=O)CCC2(C)C1Cc1c(O)c(C)c(C)oc1=O (stereo not shown)")
2.236
